biological target: T1, hK1 (human tissue kallikrein 1), recombinant (human, UniProt P06870 25-262); assay: SPR
T1 construct: Expressed in P. pastoris from KLK1 cDNA and purified; enzymatically active; also called KLK1; Recombinant (Pichia) Kallikrein
measured.property: kon
Units required after the number.

• M0139-A04 (Fab, V domains shown) VH: EVQLLESGGGLVQPGGSLRLSCAASGFTFSHYPMTWVRQAPGKGLEWVSSIRPSGGNTGYADSVKGRFTISRDNSKNTLYLQMNSLRAEDTAVYYCARLTGYSSGWFWAYGMDVWGQGTTVTVSS VL: DIQMTQSPGTLSLSPGDRATLSCRASQSVSSSYLAWYQQKAGQAPRLLIYGAASRATGIPDRFSGSGSGTDFTLTISRLEREDFAVYYCQQYGSSPLITFGQGTRLEIKR = 411000 M⁻¹ s⁻¹

IN: Indicate its recorded kon; the binder in question is M0119-B09 (Fab, V domains shown) VH: EVQLLESGGGLVQPGGSLRLSCAASGFTFSWYWMYWVRQAPGKGLEWVSVIGSSGGVTKYADSVKGRFTISRDNSKNTLYLQMNSLRAEDTATYYCARGPYRGYFDYWGQGTLVTVSS VL: DIQMTQSPATLSVSPGEGATLSCRASQSVGNSLAWYQQKPGQAPRVLVYGASTRASGIPARFSGSGSVTEFTLTISSLQSEDFAVYYCQEYNKWPITFGQGTRLERKR
OUT: 352000 M⁻¹ s⁻¹
